- target entity: Nonstructural protein 3 (Zika virus, UniProt A0A024AXB9)
- Sequence (A0A024AXB9 whole entry): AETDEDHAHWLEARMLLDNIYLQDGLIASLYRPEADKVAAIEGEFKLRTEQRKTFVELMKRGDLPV
- method summary: Functional biochemical assay to identify treatments for viral infectious disease that targets Zika NS2B-NS3 protease. Utilizing a direct enzyme activity measurement method, reading the fluorescence intensity is used to characterize the relative potency of inhibitors as IC50.
- Parameters: species or system PRVABC59
pIC50: −log10 of the molar value.
quantity kind: pIC50

structure_smiles=NCc1cccc(NC(=O)c2cc(Cl)cc(C(N)=O)c2)c1 observed=5.87
structure_smiles=O=C(O)COc1ccc(Cl)cc1[C@H](Nc1ccc2c(c1)CNC2)C(=O)NCC(F)F observed=6.74
structure_smiles=N#Cc1cc(Cl)cc(-c2ccc3[nH]c(C(=O)O)cc3c2)c1 observed="< 4.00"
structure_smiles=NCc1nc2cc(Cl)ccc2n1Cc1ccc(-c2nn[nH]n2)cc1 observed="< 4.00"
structure_smiles=C[C@@H](NC(=O)C1CCN(c2cccc(C(N)=O)n2)CC1)[C@H]1CCCNC1 observed="< 4.00"
structure_smiles=CCn1c(=O)c(N2CC[C@H](c3cnccn3)C2)nc2ccccc21 observed="< 4.00"
structure_smiles=NCc1cccc(NC(=O)CN(C(=O)OCc2ccccc2)c2ccc(OCc3ccccc3)cc2)c1 observed=4.84
structure_smiles=Cn1nc(CNc2ccc3c(c2)CNC3)cc1C1CC1 observed=4.96
structure_smiles=COCCNC(=O)[C@H](Nc1cccc([C@H]2CCOC2)c1)c1cc(Cl)cc2[nH]ncc12 observed="< 4.60"
structure_smiles=N[C@H]1CC[C@H](NC(=O)[C@@H](NC(=O)OCc2ccccc2)c2ccc(OCc3ccccc3)cc2)CC1 observed="< 4.00"
structure_smiles=C[C@H]1CNC[C@H](C(=O)Nc2cccc(CN)c2)C1 observed="< 4.00"
structure_smiles=Clc1cc(CNc2ncc3c(n2)CNC3)c2cn[nH]c2c1 observed="< 4.60"
structure_smiles=c1ccc2c(CN3CCC(c4cnco4)CC3)c[nH]c2c1 observed=4.25
structure_smiles=NCC12CC(NC(=O)c3cc(Cl)cc(NC(=O)OCc4ccccc4)c3)(CCO1)C2 observed="< 4.00"
structure_smiles=NC1(c2ccccc2NS(=O)(=O)c2ccc(Oc3ccccc3Cl)cc2)CC1 observed="< 4.00"
structure_smiles=NCc1cccc(NC(=O)Cc2ccc(OCc3ccccc3)cc2)c1 observed="< 4.00"
structure_smiles=O=C(O)c1cc2cc(-c3cccc([C@H]4CCOC4)n3)ccc2[nH]1 observed="< 4.00"
structure_smiles=CNC(=O)C[C@H](Nc1ccccn1)c1cc(Cl)cc(Br)c1 observed="< 4.00"
structure_smiles=COc1n[nH]cc1CN1CCC(c2nc3ccccc3s2)CC1 observed="< 4.00"
structure_smiles=CCNC(=O)Nc1cc(Cl)cc(C(=O)O)c1 observed="< 4.00"
structure_smiles=NCc1cccc(NC(=O)[C@@H](NC(=O)OCc2ccccc2)c2ccc(-c3cc4cccnc4s3)cc2)c1 observed=5.45
structure_smiles=O=C(Nc1ccc2c(c1)CNC2)c1ccc2c(c1)NCCO2 observed="< 4.00"
structure_smiles=Cc1c(C(=O)Nc2cc(C(=O)N3CCC[C@H]3C(N)=O)ccn2)cc(C2CC2)n1C observed="< 4.60"
structure_smiles=CN(C)Cc1csc(NC(=O)[C@@H](NC(=O)OCc2ccccc2)c2ccc(OCc3ccccc3)cc2)n1 observed="< 4.00"
structure_smiles=Clc1cccc([C@H](C#Cc2ccccc2)Nc2ccc3c(c2)CNC3)c1 observed=5.28
structure_smiles=Clc1cc([C@@H]2C[C@H]2c2cccc(-c3nn[nH]n3)c2)c2cn[nH]c2c1 observed="< 4.00"
structure_smiles=CS(=O)(=O)NC(=O)c1cc(CN)cc([C@@H]2C[C@H]2c2cc(Cl)cc(NC(=O)OCc3ccccc3)c2)c1 observed="< 4.00"
structure_smiles=O=C(Nc1cc(-c2cccnc2)ccn1)c1coc(C2CC2)n1 observed="< 4.60"
structure_smiles=COC(=O)C1(S(=O)(=O)N[C@H](C(=O)Nc2cccc(CN)c2)c2ccc(OCc3ccccc3)cc2)CCC1 observed=4.01
structure_smiles=O=C1Cc2c(cccc2C(=O)N[C@H]2CCSC3(CCOCC3)C2)N1 observed="< 4.60"
structure_smiles=NC[C@H]1CC[C@H](NC(=O)[C@@H](NC(=O)OCc2ccccc2)c2ccc(OCc3ccccc3)cc2)CC1 observed=4.09
structure_smiles=CN(C)C(=O)CCCc1nc2c(C(=O)Nc3ccc4c(c3)CNC4)cc(Cl)cc2[nH]1 observed=6.55
structure_smiles=FC(F)(F)c1ccccc1C1CCN(Cc2c[nH]c3ccccc23)CC1 observed="< 4.00"
structure_smiles=CCCC[C@@H](NC(=O)OC(C)(C)C)C(=O)N[C@@H](C(=O)NCc1ccc(CN)cc1)c1ccc(OCc2ccccc2)cc1 observed=4.59
structure_smiles=COc1ccc(N2CCC(NS(=O)(=O)c3ccc(Cl)cc3C(=O)O)CC2)cc1 observed="< 4.00"
structure_smiles=NCc1cccc(NC(=O)[C@H]2[C@H]3CCC[C@H]3[C@@H]2NC(=O)OCc2ccccc2)c1 observed="< 4.00"
structure_smiles=NCc1cccc(NC(=O)[C@@H](NC(=O)OCc2ccccc2)C2CCN(Cc3ccncc3)CC2)c1 observed="< 4.00"
structure_smiles=CCCN1C(=O)[C@](Nc2ccc3c(c2)CNC3)(C(=O)NC)c2cc(Cl)ccc21 observed="< 4.60"
structure_smiles=NCc1cccc(NC(=O)[C@H]2c3ccc(Br)cc3OCCN2C(=O)OCc2ccccc2)c1 observed="< 4.00"
structure_smiles=CC(C)c1cc(NC(=O)OCc2ccccc2)cc(C(=O)Nc2cccc(CN)c2)c1 observed=4.70
